# experimental-target: Calcium sensing receptor (hCaSR) (Homo sapiens, UniProt P41180)
# Sequence (P41180 20-1078): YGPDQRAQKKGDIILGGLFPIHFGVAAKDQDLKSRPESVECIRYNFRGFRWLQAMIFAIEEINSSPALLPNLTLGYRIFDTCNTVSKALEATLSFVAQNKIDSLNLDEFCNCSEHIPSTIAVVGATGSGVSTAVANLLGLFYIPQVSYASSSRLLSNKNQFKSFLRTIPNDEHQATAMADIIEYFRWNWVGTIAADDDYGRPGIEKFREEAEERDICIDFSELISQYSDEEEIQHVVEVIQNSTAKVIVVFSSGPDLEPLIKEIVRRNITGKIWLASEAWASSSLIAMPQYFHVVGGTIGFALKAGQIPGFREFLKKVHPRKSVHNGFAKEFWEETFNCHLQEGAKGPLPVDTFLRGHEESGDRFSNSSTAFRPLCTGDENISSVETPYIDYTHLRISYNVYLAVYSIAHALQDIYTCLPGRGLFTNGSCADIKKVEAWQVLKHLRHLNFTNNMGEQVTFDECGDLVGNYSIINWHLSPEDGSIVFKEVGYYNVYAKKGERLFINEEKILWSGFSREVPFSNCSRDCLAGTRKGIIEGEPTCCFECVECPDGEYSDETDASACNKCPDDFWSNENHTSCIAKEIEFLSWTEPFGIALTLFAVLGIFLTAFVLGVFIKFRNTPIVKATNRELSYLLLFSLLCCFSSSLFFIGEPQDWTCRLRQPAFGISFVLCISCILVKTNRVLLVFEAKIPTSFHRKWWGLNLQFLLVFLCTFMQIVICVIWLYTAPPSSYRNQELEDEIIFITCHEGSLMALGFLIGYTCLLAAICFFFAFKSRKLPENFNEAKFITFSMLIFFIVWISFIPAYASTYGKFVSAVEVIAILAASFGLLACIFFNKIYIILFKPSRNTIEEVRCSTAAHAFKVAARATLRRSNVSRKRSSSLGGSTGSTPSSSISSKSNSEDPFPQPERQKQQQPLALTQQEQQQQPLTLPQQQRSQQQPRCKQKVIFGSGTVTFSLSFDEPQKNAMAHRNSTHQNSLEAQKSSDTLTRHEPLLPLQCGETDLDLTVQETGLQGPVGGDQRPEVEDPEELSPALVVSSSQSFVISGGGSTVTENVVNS
# assay-protocol: In-vitro assay of calcimimetics through modulation of calcium sensing receptor (intracellular calcium increase, FLIPR)
# experimental-context: stably transfected HEK293 cells expressing hCaSR; Fluo4NW dye; 0.3 mM CaCl2; 8-point assay; read-out: EC50 in range
pEC50: −log10 of the molar value. Structures can show the parent of a compound that is named as a salt.
value-kind: pEC50

For orientation, consider the following solved cases.
>  <compound>
COc1cccc([C@@H](C)NC(C)c2cc(-c3ccc(C(=O)O)c(Cl)c3)c3ccccc3c2)c1 (stereo partly shown) [Example 121, hydrochloride]

>  <result>
6.40 to 7.30

$$$$
>  <compound>
COc1cccc([C@@H](C)NCc2cc(-c3ccc(Cl)c(C(=O)O)c3)c3ccccc3c2)c1 [Example 99, hydrochloride]

>  <result>
7.30 to 7.70

$$$$
>  <compound>
Cc1ccc(-c2cc(CN[C@H](C)c3cccc4ccccc34)cc3ccccc23)cc1C(=O)O

>  <result>
7.30 to 7.70

$$$$

Consider now this further compound.
Any idea what its pEC50 is? The compound is CC(N[C@H](C)c1cccc(Cl)c1)c1cc(-c2ccc(F)c(C(=O)O)c2)c2ccccc2c1 (stereo partly shown) [Example 127, hydrochloride]
6.40 to 7.30
